src = ChEMBL document CHEMBL3588852

# test.details: Cytotoxic activity against human fibroblasts assessed as reduction in cell viability incubated for 48 hrs by MTT assay
# Assay type: cell-based
# recorded.conditions: Fibroblast
recorded.endpoint: pIC50
pIC50 is a log-scale quantity: -log10 of the concentration expressed in molar.

Solved cases below.
CCCCCCCCCC(=O)OC[C@@]1(C)CCC[C@]2(C)[C@@H]1CC[C@@]13C=C[C@@](C)(CC[C@H]12)C3 : 4.48
C[C@]12C=C[C@@]3(CC[C@@H]4[C@@](C)(COC(=O)/C=C/c5ccc(F)cc5)CCC[C@@]4(C)[C@@H]3CC1)C2 : 4.16

Read off the recorded pIC50 for C[C@]12C=C[C@@]3(CC[C@@H]4[C@@](C)(COC(=O)/C=C/c5cccc([N+](=O)[O-])c5)CCC[C@@]4(C)[C@@H]3CC1)C2
4.36

Answer with reported pIC50 of C[C@]12C=C[C@@]3(CC[C@@H]4[C@@](C)(COC(=O)/C=C/c5ccc(Cl)cc5)CCC[C@@]4(C)[C@@H]3CC1)C2
4.54

====

# test.details: Cytotoxic activity against human fibroblasts assessed as reduction in cell viability incubated for 48 hrs by MTT assay
# Type: cell-based
# recorded.conditions: Fibroblast
Entries and their measured pIC50 follow.
// pIC50 is dimensionless: -log10 of concentration (M)

Completed entries (count: 2):
C[C@]12C=C[C@@]3(CC[C@@H]4[C@@](C)(COC(=O)/C=C/c5ccccc5[N+](=O)[O-])CCC[C@@]4(C)[C@@H]3CC1)C2 : 4.42
C[C@]12C=C[C@@]3(CC[C@@H]4[C@@](C)(COC(=O)/C=C/c5ccc([N+](=O)[O-])cc5)CCC[C@@]4(C)[C@@H]3CC1)C2 : 4.21

Please list pIC50 recorded for the compound CCCCCCCCCCCCCCCCCCCC(=O)OC[C@@]1(C)CCC[C@]2(C)[C@@H]1CC[C@@]13C=C[C@@](C)(CC[C@H]12)C3
3.24

====

# test.details: Cytotoxic activity against human fibroblasts assessed as reduction in cell viability incubated for 48 hrs by MTT assay
# Type: cell-based
# recorded.conditions: Fibroblast
Threshold check on IC50: strictly below 300 µM is Y; on or above 300 µM is N.

Example entries begin here.
CCCCCCCCCCCCCCCCCC(=O)OC[C@@]1(C)CCC[C@]2(C)[C@@H]1CC[C@@]13C=C[C@@](C)(CC[C@H]12)C3 : N
COc1ccc(/C=C/C(=O)OC[C@@]2(C)CCC[C@]3(C)[C@@H]2CC[C@@]24C=C[C@@](C)(CC[C@H]23)C4)cc1 : N
COc1cccc(/C=C/C(=O)OC[C@@]2(C)CCC[C@]3(C)[C@@H]2CC[C@@]24C=C[C@@](C)(CC[C@H]23)C4)c1 : Y
Cc1ccc(/C=C/C(=O)OC[C@@]2(C)CCC[C@]3(C)[C@@H]2CC[C@@]24C=C[C@@](C)(CC[C@H]23)C4)cc1 : Y
C[C@]12C=C[C@@]3(CC[C@@H]4[C@@](C)(CO)CCC[C@@]4(C)[C@@H]3CC1)C2 : Y

Please check: IC50 for COc1ccccc1/C=C/C(=O)OC[C@@]1(C)CCC[C@]2(C)[C@@H]1CC[C@@]13C=C[C@@](C)(CC[C@H]12)C3 , strictly under 300 µM or not?
N

Regarding CCCCCCCCCCCCCCCC(=O)OC[C@@]1(C)CCC[C@]2(C)[C@@H]1CC[C@@]13C=C[C@@](C)(CC[C@H]12)C3 , kindly confirm whether its IC50 is beneath 300 µM.
Y

Given the entry C[C@]12C=C[C@@]3(CC[C@@H]4[C@@](C)(COC(=O)/C=C/c5ccccc5)CCC[C@@]4(C)[C@@H]3CC1)C2 , would its reported IC50 be below 300 µM?
Y
